Target: P2X4 (Homo sapiens, UniProt Q99571)
Sequence (Q99571 1-388): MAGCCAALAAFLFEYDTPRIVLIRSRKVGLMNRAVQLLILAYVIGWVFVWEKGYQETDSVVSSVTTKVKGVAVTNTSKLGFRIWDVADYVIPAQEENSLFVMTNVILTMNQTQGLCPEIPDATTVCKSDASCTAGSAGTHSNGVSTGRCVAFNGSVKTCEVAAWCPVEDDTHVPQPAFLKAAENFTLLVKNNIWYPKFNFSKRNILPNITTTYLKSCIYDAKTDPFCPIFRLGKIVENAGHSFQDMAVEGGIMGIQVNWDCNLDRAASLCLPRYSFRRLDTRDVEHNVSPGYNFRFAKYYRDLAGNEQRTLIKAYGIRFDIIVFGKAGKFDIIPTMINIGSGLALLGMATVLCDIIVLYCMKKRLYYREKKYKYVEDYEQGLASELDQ
Test: Assay A: human P2X4 receptor cell line, FLIPR calcium assay (Fluo-8, agonist Bz-ATP at EC80)
Format: cell-based
Set-up: host or cells: HEK 293 (recombinant, constitutively expressing; with mitochondrial photina in Assay B)
Details: percentage of maximal inhibition; HEK human P2X4 cells, Fluo-8 FLIPR; read-out: human P2X4 Assay A avg Efficacy
QUANTITY MEASURED: Emax (%)

MOLECULE SMILES: NS(=O)(=O)c1cc(NC(=O)Cc2ccccc2Cl)ccc1OC1CCCCC1
UNITS TEXT: %
Emax: 86
--
MOLECULE SMILES: C=C(C)c1cccc(Oc2ccc(NC(=O)Cc3ccccc3Cl)cc2S(N)(=O)=O)c1
UNITS TEXT: %
Emax: 80
--
MOLECULE SMILES: NS(=O)(=O)c1cc(NC(=O)Cc2ccc(C(F)(F)F)cc2Cl)ccc1Oc1cccc(Cl)c1
UNITS TEXT: %
Emax: 75
--
MOLECULE SMILES: COc1cc(C)cc(Cl)c1CC(=O)Nc1ccc(Oc2cccc(Cl)c2)c(S(N)(=O)=O)c1
UNITS TEXT: %
Emax: 85
